// provenance: paper PMC10397247

Target: T1, P6-AA-12HGe-H
T1 chain: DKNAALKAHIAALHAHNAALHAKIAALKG
Assay: two-hybrid library CCmax;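 further: natural log of median RNA to DNA barcode read ratio; higher means stronger binding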
Conditions: mean of both orientations
endpoint.name: interaction score

* DENAALEAWIAALWAWNAALWAEIAALEG [P5-AA-12HGe-W] | -1.46
* DENAALEAAIAALAAANAALAAEIAALEG [P5-AA-12HGe-A] | -0.816
* DENAALEAMIAALMAMNAALMAEIAALEG [P5-AA-12HGe-M] | -0.103
* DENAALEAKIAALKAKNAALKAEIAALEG [4H1401-AA] | -1.23
* DENAALEADIAALDADNAALDAEIAALEG [P5-AA-12HGe-D] | -2.35
* DENAALEATIAALTATNAALTAEIAALEG [P5-AA-12HGe-T] | -1.26
* DENAALEAYIAALYAYNAALYAEIAALEG [P5-AA-12HGe-Y] | -0.445
* DENAALEAEIAALEAENAALEAEIAALEG [P5-AA-12HGe-E] | 2.11
* DENAALEAHIAALHAHNAALHAEIAALEG [P5-AA-12HGe-H] | -1.62
* DENAALEAQIAALQAQNAALQAEIAALEG [P5-AA-12HGe-Q] | -0.211
* DENAALEASIAALSASNAALSAEIAALEG [P5-AA-12HGe-S] | -1.52
* DENAALEARIAALRARNAALRAEIAALEG [P5-AA-12HGe-R] | -1.35
